FYI, the data here is from paper PMC12693167.

# Measured On: purified porcine brain tubulin (Sus scrofa)
# Construct: purified porcine brain tubulin; from tissue; host or cells: porcine brain
# Protocol Summary: Biolayer interferometry (BLI) binding to tubulin
# Assay Context: immobilized tubulin, 1:1 binding model, mean ± SD, triplicate

[
  {
    "Smiles Input": "COc1cc(-n2ccc3ccc(-c4ccc(SC)cc4)cc32)cc(OC)c1OC",
    "KD": "undetectable binding"
  },
  {
    "Smiles Input": "COc1cc(-n2ccc3ccc(-c4cccc(C)c4)cc32)cc(OC)c1OC",
    "KD": "low micromolar range"
  },
  {
    "Smiles Input": "COc1cc(-n2ccc3ccc(-c4ccc(C(C)C)cc4)cc32)cc(OC)c1OC",
    "KD": "undetectable binding"
  },
  {
    "Smiles Input": "CCCCc1ccc(-c2ccc3ccn(-c4cc(OC)c(OC)c(OC)c4)c3c2)cc1",
    "KD": "undetectable binding"
  },
  {
    "Smiles Input": "COc1cc(-n2ccc3ccc(-c4ccc(C)c(C#N)c4)cc32)cc(OC)c1OC",
    "KD": "low micromolar range"
  },
  {
    "Smiles Input": "COc1cc(-n2ccc3ccc(-c4cccc(OC(F)(F)F)c4)cc32)cc(OC)c1OC",
    "KD": "undetectable binding"
  },
  {
    "Smiles Input": "COc1cc(-n2ccc3ccc(-c4cccc(C#N)c4)cc32)cc(OC)c1OC",
    "KD": "low micromolar range"
  },
  {
    "Smiles Input": "CCc1ccccc1-c1ccc2ccn(-c3cc(OC)c(OC)c(OC)c3)c2c1",
    "KD": "low micromolar range"
  },
  {
    "Smiles Input": "COc1cc(-n2ccc3ccc(-c4ccc(C#N)cc4)cc32)cc(OC)c1OC",
    "KD": "undetectable binding"
  },
  {
    "Smiles Input": "COc1cc(-n2ccc3ccc(-c4nc5ccccc5s4)cc32)cc(OC)c1OC",
    "KD": "undetectable binding"
  },
  {
    "Smiles Input": "COc1cc(-n2ccc3ccc(-c4ccccc4C#N)cc32)cc(OC)c1OC",
    "KD": "low micromolar range"
  }
]

---

# Test system: B16-F10 cells
# Protocol Summary: CCK-8 antiproliferative assay, B16-F10
# Type: cell-based, murine
# Assay Context: Mus musculus, cell viability (CCK-8), 48 h
Parameter: IC50 (µM)

[
  {
    "Compound": "COc1cc(-n2ccc3ccc(-c4ccc(C#N)cc4F)cc32)cc(OC)c1OC [3n]",
    "Parameter": "IC50",
    "Bound Type": "=",
    "Quantitative Readout": 68.9
  },
  {
    "Compound": "COc1cc(-n2ccc3ccc(-c4cccc(C)c4)cc32)cc(OC)c1OC [3c]",
    "Parameter": "IC50",
    "Bound Type": "=",
    "Quantitative Readout": 59.2
  },
  {
    "Compound": "COc1cc(-n2ccc3ccc(-c4ccc(C#N)cc4)cc32)cc(OC)c1OC [3m]",
    "Parameter": "IC50",
    "Bound Type": ">",
    "Quantitative Readout": 100
  },
  {
    "Compound": "COc1cc(-n2ccc3ccc(-c4cccc(OC(F)(F)F)c4)cc32)cc(OC)c1OC [3h]",
    "Parameter": "IC50",
    "Bound Type": ">",
    "Quantitative Readout": 100
  },
  {
    "Compound": "COc1cc(-n2ccc3ccc(-c4ccc(SC)cc4)cc32)cc(OC)c1OC [3j]",
    "Parameter": "IC50",
    "Bound Type": ">",
    "Quantitative Readout": 100
  }
]

---

# Measured On: purified porcine brain tubulin (Sus scrofa, UniProt P02554)
# Sequence (P02554 whole entry): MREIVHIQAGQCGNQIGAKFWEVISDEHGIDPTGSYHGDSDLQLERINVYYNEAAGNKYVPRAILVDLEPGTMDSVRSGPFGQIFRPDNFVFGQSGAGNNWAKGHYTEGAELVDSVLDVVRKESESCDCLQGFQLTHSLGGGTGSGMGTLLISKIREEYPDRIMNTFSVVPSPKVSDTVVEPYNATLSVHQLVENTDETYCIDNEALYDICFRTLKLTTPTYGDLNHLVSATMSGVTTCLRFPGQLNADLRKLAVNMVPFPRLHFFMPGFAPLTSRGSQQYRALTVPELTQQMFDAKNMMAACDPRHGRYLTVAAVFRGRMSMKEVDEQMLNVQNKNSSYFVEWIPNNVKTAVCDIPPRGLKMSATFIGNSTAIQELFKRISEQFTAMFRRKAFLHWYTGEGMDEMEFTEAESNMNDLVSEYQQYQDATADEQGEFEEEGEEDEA
# Sequence (P02550 whole entry partner): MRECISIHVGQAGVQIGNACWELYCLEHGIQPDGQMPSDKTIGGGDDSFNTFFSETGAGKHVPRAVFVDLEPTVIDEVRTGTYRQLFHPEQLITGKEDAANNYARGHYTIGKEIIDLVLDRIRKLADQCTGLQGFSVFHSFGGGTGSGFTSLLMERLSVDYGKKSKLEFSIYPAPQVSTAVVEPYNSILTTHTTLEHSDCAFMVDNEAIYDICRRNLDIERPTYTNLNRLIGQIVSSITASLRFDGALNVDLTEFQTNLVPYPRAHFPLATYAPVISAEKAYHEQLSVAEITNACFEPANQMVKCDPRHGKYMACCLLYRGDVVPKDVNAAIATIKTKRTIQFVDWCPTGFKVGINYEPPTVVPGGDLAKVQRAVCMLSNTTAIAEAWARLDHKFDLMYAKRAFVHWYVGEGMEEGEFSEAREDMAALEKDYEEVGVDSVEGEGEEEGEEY
Parameter: Kd

[
  {
    "Smiles Input": "COc1cc(-n2ccc3ccc(-c4ccc(C(C)C)cc4)cc32)cc(OC)c1OC",
    "Result": "> 200 µM"
  },
  {
    "Smiles Input": "COc1cc(-n2ccc3ccc(-c4ccc(C)c(C#N)c4)cc32)cc(OC)c1OC",
    "Result": "13 µM"
  },
  {
    "Smiles Input": "COc1cc(-n2ccc3ccc(-c4ccccc4)cc32)cc(OC)c1OC",
    "Result": "39 µM"
  },
  {
    "Smiles Input": "CCCCc1ccc(-c2ccc3ccn(-c4cc(OC)c(OC)c(OC)c4)c3c2)cc1",
    "Result": "> 200 µM"
  },
  {
    "Smiles Input": "COc1cc(-n2ccc3ccc(-c4ccc(C#N)cc4F)cc32)cc(OC)c1OC",
    "Result": "220 µM"
  },
  {
    "Smiles Input": "COc1cc(-n2ccc3ccc(-c4ccccc4C#N)cc32)cc(OC)c1OC",
    "Result": "26 µM"
  },
  {
    "Smiles Input": "COc1cc(-n2ccc3ccc(-c4cccc(C)c4)cc32)cc(OC)c1OC",
    "Result": "23 µM"
  },
  {
    "Smiles Input": "CCc1ccc(-c2ccc3ccn(-c4cc(OC)c(OC)c(OC)c4)c3c2)cc1",
    "Result": "110 µM"
  },
  {
    "Smiles Input": "COc1cc(-n2ccc3ccc(-c4cccc(C#N)c4)cc32)cc(OC)c1OC",
    "Result": "29 µM"
  }
]

---

# Test system: A549 cells
# Protocol Summary: CCK-8 antiproliferative assay, A549
# Type: cell-based
# Assay Context: Homo sapiens, cell viability (CCK-8), 48 h
# Description: To evaluate the anticancer potential of the synthesized compounds, a panel of six human and murine cancer cell lines representing different tissue origins was selected, including MCF-7 (human breast adenocarcinoma), MDA-MB-231 (human triple-negative breast cancer), A549 (human non-small cell lung cancer), HeLa (human cervical cancer), A375 (human melanoma), and B16-F10 (murine melanoma) (Table 2). […]

[
  {
    "Smiles Input": "COc1cc(-n2ccc3ccc(-c4ccccc4)cc32)cc(OC)c1OC",
    "IC50": "36.6 µM"
  },
  {
    "Smiles Input": "COc1cc(-n2ccc3ccc(-c4ccc(C#N)cc4)cc32)cc(OC)c1OC",
    "IC50": "> 100 µM"
  },
  {
    "Smiles Input": "COc1cc(-n2ccc3ccc(-c4nc5ccccc5s4)cc32)cc(OC)c1OC",
    "IC50": "> 100 µM"
  },
  {
    "Smiles Input": "COc1cc(-n2ccc3ccc(-c4ccc(SC)cc4)cc32)cc(OC)c1OC",
    "IC50": "> 100 µM"
  },
  {
    "Smiles Input": "COc1cc(-n2ccc3ccc(-c4ccccc4C#N)cc32)cc(OC)c1OC",
    "IC50": "> 100 µM"
  },
  {
    "Smiles Input": "COc1cc(-n2ccc3ccc(-c4ccccc4C(C)C)cc32)cc(OC)c1OC",
    "IC50": "87.4 µM"
  },
  {
    "Smiles Input": "COc1cc(-n2ccc3ccc(-c4ccc(C)c(C#N)c4)cc32)cc(OC)c1OC",
    "IC50": "6.3 µM"
  }
]

---

# System: B16-F10 cells
# Protocol Summary: CCK-8 antiproliferative assay, B16-F10
# Type: cell-based, murine
# Assay Context: Mus musculus, cell viability (CCK-8), 48 h
Parameter: IC50

[
  {
    "Compound": "COc1cc(-n2ccc3ccc(-c4ccccc4C#N)cc32)cc(OC)c1OC [3l]",
    "Result": "> 100 µM"
  },
  {
    "Compound": "COc1cc(-n2ccc3ccc(-c4ccccc4C(C)C)cc32)cc(OC)c1OC [3f]",
    "Result": "6.67 µM"
  },
  {
    "Compound": "COc1cc(-n2ccc3ccc(-c4ccccc4)cc32)cc(OC)c1OC [3a]",
    "Result": "45.4 µM"
  },
  {
    "Compound": "COc1cc(-n2ccc3ccc(-c4nc5ccccc5s4)cc32)cc(OC)c1OC [3p]",
    "Result": "> 100 µM"
  },
  {
    "Compound": "COc1cc(-n2ccc3ccc(-c4ccc(C)c(C#N)c4)cc32)cc(OC)c1OC [3g]",
    "Result": "1.69 µM"
  },
  {
    "Compound": "COc1cc(-n2ccc3ccc(-c4cccc(C#N)c4)cc32)cc(OC)c1OC [3b]",
    "Result": "3.78 µM"
  },
  {
    "Compound": "CCCCc1ccc(-c2ccc3ccn(-c4cc(OC)c(OC)c(OC)c4)c3c2)cc1 [3i]",
    "Result": "> 100 µM"
  },
  {
    "Compound": "COc1cc(-n2ccc3ccc(-c4ccc(Oc5ccccc5)cc4)cc32)cc(OC)c1OC [3o]",
    "Result": "> 100 µM"
  },
  {
    "Compound": "CCc1ccc(-c2ccc3ccn(-c4cc(OC)c(OC)c(OC)c4)c3c2)cc1 [3e]",
    "Result": "> 100 µM"
  },
  {
    "Compound": "COc1cc(-n2ccc3ccc(-c4ccc(C(C)C)cc4)cc32)cc(OC)c1OC [3k]",
    "Result": "> 100 µM"
  },
  {
    "Compound": "CCc1ccccc1-c1ccc2ccn(-c3cc(OC)c(OC)c(OC)c3)c2c1 [3d]",
    "Result": "6.49 µM"
  }
]
